target: PI3K (p110δ/p85α) (Homo sapiens, UniProt O00329); experiment: PI3Kδ assay (ADP-Glo Kinase Assay); type: biochemical; conditions: recombinant enzyme; IC50 (nM) or max inhibition (%) at 0.5 μM
Sequence (O00329 whole entry): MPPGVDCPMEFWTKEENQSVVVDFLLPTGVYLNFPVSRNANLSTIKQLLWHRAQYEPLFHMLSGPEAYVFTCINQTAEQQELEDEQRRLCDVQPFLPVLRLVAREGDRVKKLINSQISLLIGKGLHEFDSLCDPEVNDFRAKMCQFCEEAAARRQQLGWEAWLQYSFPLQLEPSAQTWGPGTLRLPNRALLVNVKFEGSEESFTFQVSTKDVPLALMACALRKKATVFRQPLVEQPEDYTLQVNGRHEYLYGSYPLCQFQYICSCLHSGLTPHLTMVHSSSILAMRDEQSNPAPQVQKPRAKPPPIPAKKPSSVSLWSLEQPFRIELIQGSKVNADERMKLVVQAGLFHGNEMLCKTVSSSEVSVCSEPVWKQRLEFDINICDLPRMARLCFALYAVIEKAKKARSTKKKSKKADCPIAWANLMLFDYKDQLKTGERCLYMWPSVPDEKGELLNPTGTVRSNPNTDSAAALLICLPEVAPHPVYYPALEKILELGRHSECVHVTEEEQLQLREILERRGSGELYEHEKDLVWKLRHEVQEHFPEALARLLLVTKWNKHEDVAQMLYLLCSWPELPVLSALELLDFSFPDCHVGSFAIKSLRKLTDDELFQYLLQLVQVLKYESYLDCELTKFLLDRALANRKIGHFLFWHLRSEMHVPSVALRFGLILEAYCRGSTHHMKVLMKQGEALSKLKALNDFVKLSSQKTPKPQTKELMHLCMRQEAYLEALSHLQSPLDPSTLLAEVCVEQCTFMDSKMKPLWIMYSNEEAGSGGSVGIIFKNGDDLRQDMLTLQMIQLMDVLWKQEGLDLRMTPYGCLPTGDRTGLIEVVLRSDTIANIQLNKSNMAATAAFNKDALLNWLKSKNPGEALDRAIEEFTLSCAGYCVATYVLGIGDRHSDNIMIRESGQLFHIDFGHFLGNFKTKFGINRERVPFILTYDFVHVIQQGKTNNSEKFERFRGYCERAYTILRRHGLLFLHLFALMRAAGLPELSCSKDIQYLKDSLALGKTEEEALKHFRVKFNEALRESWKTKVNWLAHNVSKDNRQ
Sequence (P27986 whole entry partner): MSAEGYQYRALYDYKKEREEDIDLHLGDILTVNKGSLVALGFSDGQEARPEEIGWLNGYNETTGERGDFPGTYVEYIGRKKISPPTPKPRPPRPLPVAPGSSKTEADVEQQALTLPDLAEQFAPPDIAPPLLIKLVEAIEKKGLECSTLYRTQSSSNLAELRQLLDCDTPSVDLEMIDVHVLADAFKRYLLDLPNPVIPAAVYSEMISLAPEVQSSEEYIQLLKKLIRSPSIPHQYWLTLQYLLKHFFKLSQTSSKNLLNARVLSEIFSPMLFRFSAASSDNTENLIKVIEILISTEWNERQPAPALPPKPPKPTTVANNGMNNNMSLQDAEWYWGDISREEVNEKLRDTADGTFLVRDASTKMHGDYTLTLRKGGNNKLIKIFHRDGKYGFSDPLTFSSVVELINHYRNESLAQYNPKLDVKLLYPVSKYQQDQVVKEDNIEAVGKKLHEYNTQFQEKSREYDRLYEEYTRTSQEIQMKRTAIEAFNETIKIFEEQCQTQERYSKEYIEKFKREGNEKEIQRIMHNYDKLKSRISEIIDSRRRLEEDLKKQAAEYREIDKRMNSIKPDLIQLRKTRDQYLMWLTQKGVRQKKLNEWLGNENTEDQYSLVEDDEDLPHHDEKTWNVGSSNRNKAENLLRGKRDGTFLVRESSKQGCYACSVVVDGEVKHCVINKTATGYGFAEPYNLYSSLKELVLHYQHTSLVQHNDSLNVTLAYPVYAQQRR
Mark each entry true if its IC50 sits below 2 nM, and false for all others.

Given the entry CCOCC1(NC(=O)c2c(F)c(Cl)cc([C@H](C)c3nc(C)c4c(N)nccn34)c2OC(C)C)CC1 , would its reported IC50 be below 2 nM?
true

What do you get for Cc1nc([C@@H](C)c2cc(Cl)c(F)c(C(=O)N[C@H](C)c3ccnc(C(F)(F)F)c3)c2OC(C)C)n2ccnc(N)c12 [Compound 59B] ?
true

What do you get for Cc1nc([C@@H](C)c2cc(Cl)c(F)c(C(=O)N[C@@H](C)c3ccnc(C(F)(F)F)c3)c2OC(C)C)n2ccnc(N)c12 [Compound 59A] ?
false

What do you get for CCNC(=O)c1c(F)c(Cl)cc([C@H](C)c2nc(C)c3c(N)nccn23)c1OC(C)C ?
true

What do you get for Cc1nc(C(C)c2cc(Cl)c(F)c(C(=O)N3CC(O)C3)c2OC(C)C)n2ccnc(N)c12 (centres unmarked) ?
false

More entries:
Given the entry Cc1nc([C@@H](C)c2cc(Cl)c(F)c(C(=O)NC3(CN4CCN(CC5CC5)CC4)CC3)c2OC(C)C)n2ccnc(N)c12 , would its reported IC50 be below 2 nM?
true

What do you get for Cc1nc(C(C)c2cc(Cl)c(F)c(C(=O)N3CCOCC3)c2OC(C)C)n2ccnc(N)c12 (single isomer, unassigned) [Compound 4B] ?
false
